Recorded CC50 values for a group of compounds are listed next.
Test: Cytotoxicity against human TZM-bl cells assessed as cell viability
Assay type: cell-based

Worked cases, answers included:
[
  {
    "compound": "CCc1cc(=O)c2ccc(OCc3cccc(C(=O)OC)c3)c(COC(=O)C34CCC(C)(C(=O)O3)C4(C)C)c2o1 (stereo unspecified)",
    "reported_result": "> 36.5 µM"
  },
  {
    "compound": "CCOc1ccc2c(=O)cc(CC)oc2c1CN1CCN(C(=O)C(=O)c2cccs2)CC1",
    "reported_result": "> 22 µM"
  }
]

Output CC50 of CCOc1ccc2c(=O)cc(CC)oc2c1CN1CCN(C(=O)C(=O)c2c[nH]c3ccccc23)CC1 > 20.5 µM

Output CC50 of CCc1cc(=O)c2ccc3c(c2o1)[C@@H](OC(=O)C12CCC(C)(C(=O)O1)C2(C)C)[C@@H](OC(=O)C12CCC(C)(C(=O)O1)C2(C)C)C(C)(C)O3 (stereo partly specified) 14.2 µM

Output CC50 of CCc1cc(=O)c2ccc(OCc3cc(OC)cc(OC)c3)c(COC(=O)C34CCC(C)(C(=O)O3)C4(C)C)c2o1 (stereo unspecified) > 36.3 µM

Output CC50 of CCOc1ccc2c(=O)cc(CC)oc2c1CN1CCN(C(=O)C(=O)c2ccccc2)CC1 > 22.3 µM
